Item-by-item account of growth inhibition
- test name: NCI Yeast Anticancer Drug Screen. Data for the cln2 rad14 strain (AID 165);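 note: 0% = growth equal to vehicle treated cultures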
- details: S. cerevisiae cln2 rad14 strain, at 50.0 µM, hits give high values
Compounds without any hit were thinned out: in the full panel of roughly 79,000, 15% have a hit. Calls of active or inactive are those of the source. Cut-off read from the data, not from the text of the source: active = growth inhibition above about 70%; inactive = the rest.

Would you mind telling me what growth inhibition value was observed for CCC1(C)CC(C)(C)c2cc(C(C)=O)c(C)cc21 (configuration not stated) ?
-29.5% (inactive)

Would you mind telling me what growth inhibition value was observed for O=C(O)COc1ccccc1C1CCCCC1 ?
-4.9% (inactive)

Would you mind telling me what growth inhibition value was observed for Nc1ccn(C2OC(COC(=O)C34CC5CC(CC(C5)C3)C4)C(O)C2O)c(=O)n1 (configuration not stated) ?
-2.4% (inactive)

Would you mind telling me what growth inhibition value was observed for Brc1cccc(-c2nnc(-c3ccccc3)o2)c1 ?
-41.5% (inactive)

Would you mind telling me what growth inhibition value was observed for COC(=O)CC1(O)C(C=C(C)C)C(C(=O)OC)C(=O)C(C(=O)OC)C1C(=O)OC (configuration not stated) ?
-3.5% (inactive)

Would you mind telling me what growth inhibition value was observed for O=C(/C=C\c1ccc([N+](=O)[O-])cc1)c1ccccc1 ?
-28.3% (inactive)

Would you mind telling me what growth inhibition value was observed for S=C(Nc1ccccc1)c1ccccc1 ?
-29.3% (inactive)

Would you mind telling me what growth inhibition value was observed for C/C(N=NC(=S)N1CCCCC1)=C1\C=CC=CN1O ?
97.8% (active)
